- experimental-system: T1, human CD39 (Accession No. NM_001776.6) expressed on cells (human, UniProt P49961 1-510)
- T1 construct: whole, on cells; On Jurkat, 293T or SK-MEL28 cells; also called Jurkat/CD39; 293T/CD39
- T1 sequence (looked up): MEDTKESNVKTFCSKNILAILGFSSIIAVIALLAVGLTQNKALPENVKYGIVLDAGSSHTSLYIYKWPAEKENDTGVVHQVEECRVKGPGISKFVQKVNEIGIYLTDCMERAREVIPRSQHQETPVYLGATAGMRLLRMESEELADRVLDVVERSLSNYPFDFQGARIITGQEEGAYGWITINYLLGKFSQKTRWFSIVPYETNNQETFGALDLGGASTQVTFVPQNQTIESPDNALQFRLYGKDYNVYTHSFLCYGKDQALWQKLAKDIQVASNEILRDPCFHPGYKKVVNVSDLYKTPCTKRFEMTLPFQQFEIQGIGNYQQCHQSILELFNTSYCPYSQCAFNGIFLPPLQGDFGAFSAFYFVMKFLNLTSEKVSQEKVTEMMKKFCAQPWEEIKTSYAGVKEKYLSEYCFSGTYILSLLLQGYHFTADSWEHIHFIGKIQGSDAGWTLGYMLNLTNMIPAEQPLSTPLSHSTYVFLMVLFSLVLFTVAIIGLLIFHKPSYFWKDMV
- assay-explanation: flow cytometry, Jurkat/CD39 cells, KD from MFI
measure: Kd (nM)

binder | observed
I67_sc (antibody, scFv-Fc homodimer, anti-CD39 (mouse variable regions); also called scFv-Fc homodimeric antibody of anti-CD39_scFv antibody I67; not shown: linker and Fc-LALA (human IgG1 Fc with L234A and L235A)) scFv: DVQLQESGPSLVQPSQSLSINCTVSGFSLSSYGVHWVRQSPGKGLEWLGVIWRRGSTDYNAAFMSRLSITKDNSKSQVFFKMNRLQADDTATYYCAKGISTATSWFAYWGQGTLVTVSAGGGGSGGGGSGGGGSGGGGSDIVMTQSHKFMSTSVGDRVSVTCKASQNVGTNVAWYQQKPGQSPKALIYSASYRYSGVPDRFTGSGSGTDFTLTISNVQSEDLAEYFCQQYNSYPLTFGAGTKLELK | 0.329
